# STUDY TARGET: Human α2δ-1 subunit of Cav2.2 calcium channel (Homo sapiens (Human))
# Sequence (P54289 25-1103): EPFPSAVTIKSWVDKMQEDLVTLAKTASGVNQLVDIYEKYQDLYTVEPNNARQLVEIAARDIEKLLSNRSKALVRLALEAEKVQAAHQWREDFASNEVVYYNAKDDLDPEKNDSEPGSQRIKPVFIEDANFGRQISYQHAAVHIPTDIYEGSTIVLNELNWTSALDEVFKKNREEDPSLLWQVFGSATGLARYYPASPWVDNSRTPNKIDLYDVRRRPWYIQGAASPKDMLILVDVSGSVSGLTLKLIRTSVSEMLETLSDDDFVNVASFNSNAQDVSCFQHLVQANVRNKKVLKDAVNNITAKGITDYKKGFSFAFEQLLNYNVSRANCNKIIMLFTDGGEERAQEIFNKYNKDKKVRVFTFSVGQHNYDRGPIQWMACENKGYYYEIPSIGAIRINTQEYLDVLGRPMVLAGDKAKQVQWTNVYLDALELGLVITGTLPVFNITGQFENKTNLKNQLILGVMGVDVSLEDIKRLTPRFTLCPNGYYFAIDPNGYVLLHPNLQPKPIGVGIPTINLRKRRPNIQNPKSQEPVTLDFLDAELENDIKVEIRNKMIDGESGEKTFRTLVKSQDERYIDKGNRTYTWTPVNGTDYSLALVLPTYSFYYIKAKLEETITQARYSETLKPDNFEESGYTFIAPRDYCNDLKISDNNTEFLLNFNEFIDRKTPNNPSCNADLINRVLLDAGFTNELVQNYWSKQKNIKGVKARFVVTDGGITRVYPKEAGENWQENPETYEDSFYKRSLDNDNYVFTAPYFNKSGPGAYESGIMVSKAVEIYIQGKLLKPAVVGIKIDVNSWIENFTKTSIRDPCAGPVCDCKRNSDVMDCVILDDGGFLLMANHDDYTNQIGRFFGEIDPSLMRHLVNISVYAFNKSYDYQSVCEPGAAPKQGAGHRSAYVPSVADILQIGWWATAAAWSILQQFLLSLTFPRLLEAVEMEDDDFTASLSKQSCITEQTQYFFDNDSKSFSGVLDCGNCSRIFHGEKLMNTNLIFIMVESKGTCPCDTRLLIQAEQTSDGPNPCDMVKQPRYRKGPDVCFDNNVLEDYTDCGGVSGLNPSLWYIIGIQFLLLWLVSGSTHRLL
# RUN DESCRIPTION: Binding Assay to Human α2δ-1 Subunit of Cav2.2 Calcium Channel
# MEASUREMENT PARAMETERS: Table 1; human α2δ-1 enriched membranes, 15 nM [3H]-Gabapentin; read-out: Ki(nM) alpha2delta Hum
Field: Ki. Provide a value for each of the compounds that follow.

# COMPOUND, Ki
records = [
    ("CNCC[C@H](OCc1cccc(N2CCN(C)c3ccccc3C2=O)c1)c1ccccc1", "> 3000 nM"),
    ("CCNC[C@H]1CN(C)CCN(c2cccc(O[C@@H](CCNC)c3ccccc3)c2)C1=O", "> 3000 nM"),
]

I need Ki for every entry listed below, if you could help.
1. CNCC[C@H](Oc1cc(F)cc(N2CCN(C)c3ncccc3C2=O)c1)c1cccs1
2. CNCC[C@H](Oc1ccc(CN2CCN(C)c3nc(N)ccc3C2=O)cc1)c1cccs1
3. CNCC[C@H](Oc1ccc(CN2CCN(C)c3cnc(OC)cc3C2=O)c(F)c1)c1ccccc1
4. CNCC[C@H](Oc1ccc(CN2CCN(C)c3nc(N)ccc3C2=O)c(F)c1)c1cccc(F)c1
5. CCNC[C@H]1CC(=O)N(c2cccc(O[C@@H](CCNC)c3ccccc3)c2)CCN1C
6. CNCC[C@H](Oc1ccc(CN2CCN(C)c3ncccc3C2=O)cc1)c1cccc(F)c1

["< 100 nM", "< 100 nM", "< 100 nM", "< 100 nM", "> 3000 nM", "100 to 500 nM"]

Data provenance: patent US11401270B2
